Values were extracted from patent US4904590A.

System: Staphylococcus epidermis EPI1
Format: cell-based
Details: Staphylococcus epidermis EPI1; agar-dilution; read-out: MIC
# Lookup of reported MIC keyed by entry
Give the figure together with its unit, number first.

Consider the following illustrative entries.
Cc1c([O-])c([N+]#N)c2c(c1O)C(=O)[C@@]1(Cl)C[C@@H](Cl)C(C)(C)O[C@@]1(C[C@H]1C(C)(C)[C@@H](Cl)CC[C@]1(C)O)C2=O [A80915D] :: 2 µg/mL
C=C1CCC(Cl)C(C)(C)C1CC12OC(C)(C)C(Cl)C=C1C(=O)c1c(cc(O)c(C)c1O)C2=O (stereo not shown) :: 4 µg/mL
C=C1CCC(Cl)C(C)(C)C1CC12OC(C)(C)C(Cl)CC1(Cl)C(=O)c1c(cc(O)c(C)c1O)C2=O (stereo not shown) [A80915A] :: 2 µg/mL

Turning to the following compound.
Ask | Look up and report measured MIC for this entry: C=C1CCC(Cl)C(C)(C)C1CC12OC(C)(C)C(Cl)CC1(Cl)C(=O)c1c(O)c(C)c([O-])c([N+]#N)c1C2=O (stereo not shown) [A80915B]
Reply | 2 µg/mL
